Reference source for all entries: ChEMBL document CHEMBL4152325

System Tested: Cholinesterase (Homo sapiens, UniProt P06276)
Sequence (P06276 whole entry): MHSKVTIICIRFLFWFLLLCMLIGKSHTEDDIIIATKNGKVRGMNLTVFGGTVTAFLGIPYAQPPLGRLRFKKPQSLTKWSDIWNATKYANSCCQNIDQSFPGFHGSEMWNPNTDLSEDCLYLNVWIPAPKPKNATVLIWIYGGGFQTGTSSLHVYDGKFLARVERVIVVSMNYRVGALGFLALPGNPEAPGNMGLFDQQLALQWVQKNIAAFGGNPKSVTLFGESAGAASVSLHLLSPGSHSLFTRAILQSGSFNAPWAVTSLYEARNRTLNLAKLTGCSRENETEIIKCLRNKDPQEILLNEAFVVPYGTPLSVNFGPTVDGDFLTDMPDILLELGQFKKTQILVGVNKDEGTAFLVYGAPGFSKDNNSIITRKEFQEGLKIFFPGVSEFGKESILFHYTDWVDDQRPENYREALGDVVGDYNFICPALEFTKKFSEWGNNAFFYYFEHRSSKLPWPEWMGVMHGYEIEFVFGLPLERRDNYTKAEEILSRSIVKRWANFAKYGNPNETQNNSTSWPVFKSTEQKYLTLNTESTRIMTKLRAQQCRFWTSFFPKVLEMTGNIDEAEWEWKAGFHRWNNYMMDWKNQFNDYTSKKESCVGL
Procedure Summary: Inhibition of recombinant human serum BChE using butyrylthiocholine as substrate pretreated for 20 mins followed by substrate addition by Ellman's method
pIC50: −log10 of the molar value.
Listed below: pIC50 values for each entry.
Property Measured: pIC50

Compound | Numeric Readout
COc1ccc(C2NC(=S)Nc3nc4c(c(N)c32)CCCC4)cc1 (configuration not stated) | 5.76
Nc1c2c(nc3c1C(c1ccc(F)cc1)NC(=S)N3)CCCC2 (configuration not stated) | 5.00
COc1ccccc1C1NC(=S)Nc2nc3c(c(N)c21)CCCC3 (configuration not stated) | 4.93
Cc1ccc(C2NC(=S)Nc3nc4c(c(N)c32)CCCC4)cc1 (configuration not stated) | 5.46
Nc1c2c(nc3c1C(c1cccc([N+](=O)[O-])c1)NC(=S)N3)CCCC2 (configuration not stated) | 5.57
COc1cccc(C2NC(=S)Nc3nc4c(c(N)c32)CCCC4)c1 (configuration not stated) | 5.50
Cc1cccc(C2NC(=S)Nc3nc4c(c(N)c32)CCCC4)c1 (configuration not stated) | 5.58
Nc1c2c(nc3c1C(c1ccc4c(c1)OCO4)NC(=S)N3)CCCC2 (configuration not stated) | 4.43
CN(C)c1ccc(C2NC(=S)Nc3nc4c(c(N)c32)CCCC4)cc1 (configuration not stated) | 3.81
Nc1c2c(nc3c1C(c1ccc(Cl)cc1)NC(=S)N3)CCCC2 (configuration not stated) | 6.43
Nc1c2c(nc3c1C(c1cccc(Br)c1)NC(=S)N3)CCCC2 (configuration not stated) | 5.90
Nc1c2c(nc3c1C(c1ccccc1)NC(=S)N3)CCCC2 (configuration not stated) | 5.25
